molecular target: Tyrosine-protein kinase ABL1 (Homo sapiens, UniProt P00519, E255K)
Sequence (P00519 whole entry E255K): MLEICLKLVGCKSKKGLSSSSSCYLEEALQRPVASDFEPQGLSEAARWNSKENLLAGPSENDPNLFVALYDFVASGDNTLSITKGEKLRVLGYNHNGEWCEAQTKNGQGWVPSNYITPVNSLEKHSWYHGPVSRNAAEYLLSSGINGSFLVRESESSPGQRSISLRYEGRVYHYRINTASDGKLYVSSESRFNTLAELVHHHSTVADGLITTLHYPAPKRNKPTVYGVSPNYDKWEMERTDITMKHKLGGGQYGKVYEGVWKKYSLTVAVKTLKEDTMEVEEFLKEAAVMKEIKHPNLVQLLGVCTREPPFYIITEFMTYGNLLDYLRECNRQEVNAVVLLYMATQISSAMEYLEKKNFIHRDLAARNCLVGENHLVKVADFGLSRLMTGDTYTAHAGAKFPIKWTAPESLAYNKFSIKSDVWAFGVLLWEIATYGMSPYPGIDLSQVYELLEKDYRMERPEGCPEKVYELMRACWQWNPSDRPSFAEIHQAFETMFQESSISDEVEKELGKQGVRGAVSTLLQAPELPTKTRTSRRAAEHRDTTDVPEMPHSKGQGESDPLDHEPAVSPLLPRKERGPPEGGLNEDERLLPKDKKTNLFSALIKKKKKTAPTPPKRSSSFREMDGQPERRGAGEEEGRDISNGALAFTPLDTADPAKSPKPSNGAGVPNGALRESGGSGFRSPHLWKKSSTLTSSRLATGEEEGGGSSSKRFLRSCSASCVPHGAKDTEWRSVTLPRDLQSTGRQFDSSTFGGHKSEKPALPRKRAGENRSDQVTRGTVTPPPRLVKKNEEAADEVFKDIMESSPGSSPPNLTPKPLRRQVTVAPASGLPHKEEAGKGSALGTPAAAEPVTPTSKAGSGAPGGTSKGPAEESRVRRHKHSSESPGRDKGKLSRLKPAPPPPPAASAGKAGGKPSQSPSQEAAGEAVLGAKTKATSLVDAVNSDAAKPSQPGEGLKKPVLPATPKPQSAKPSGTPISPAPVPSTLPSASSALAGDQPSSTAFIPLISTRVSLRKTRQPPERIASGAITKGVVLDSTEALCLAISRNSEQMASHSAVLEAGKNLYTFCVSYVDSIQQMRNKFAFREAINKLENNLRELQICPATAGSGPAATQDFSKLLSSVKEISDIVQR
ENDPOINT: Kd

compound="Oc1ccc(-c2nc(-c3ccc(F)cc3)c(-c3ccncc3)[nH]2)cc1 [SB-202190]" system_under_test="Tyrosine-protein kinase ABL1 (Homo sapiens, UniProt P00519, E255K)" reading="Not Active"
compound="Oc1c2ccccc2c2c3c(cccc13)N=N2 [SP-600125]" system_under_test="Tyrosine-protein kinase ABL1 (Homo sapiens, UniProt P00519, E255K)" reading="Not Active"
compound="COc1cc2c(N3CCN(C(=O)Nc4ccc(OC(C)C)cc4)CC3)ncnc2cc1OCCCN1CCCCC1 [TANDUTINIB]" system_under_test="Tyrosine-protein kinase ABL1 (Homo sapiens, UniProt P00519, E255K)" reading="Not Active"
compound="C[S+]([O-])c1ccc(-c2nc(-c3ccc(F)cc3)c(-c3ccncc3)[nH]2)cc1 (stereo not given) [SB-203580]" system_under_test="Tyrosine-protein kinase ABL1 (Homo sapiens, UniProt P00519, E255K)" reading="Not Active"
compound="CC[C@H](CO)Nc1nc(NCc2ccccc2)c2ncn(C(C)C)c2n1 [SELICICLIB]" system_under_test="Tyrosine-protein kinase ABL1 (Homo sapiens, UniProt P00519, E255K)" reading="Not Active"

Every entry's value here was drawn from ChEMBL document CHEMBL1144455.
